Attribution: patent US20040037843A1

target: HLA-A*0203 (human)
value-type: IC50 (nM)

I: SLQCVSLHLV [peptide 1418.52 (HuK2.170.V10)]
II: ITLSVGCTGAV [peptide 1418.59 (HuK2.8.T2)]
Hi! Which is lower in terms of IC50, the first one I or the second one II ? Answer by quoting the chosen item's label.
I
